Recorded values, source PubChem BioAssay AID1963873.

tested on: 276233-004-R-J1-PDC KRAS spheroids with HUVEC/MSC, viability; assay: Anticancer human tumor 276233-004-R-J1-PDC patient-derived colon adenocarcinoma cell line growth inhibition [KRAS2]; settings: second compound 10 µM; first compound 10 µM; stronger effect = lower value
Consider the cut-off 20%. If the recorded viability, T/C is strictly smaller, the label is Satisfied; if not, the label is Not satisfied.

Quick check: viability, T/C of CCNC(=O)CC1N=C(c2ccc(Cl)cc2)c2cc(OC)ccc2-n2c(C)nnc21 (stereo not given) + C=CC(=O)N1CCN(c2nc(=O)n(-c3c(C)ccnc3C(C)C)c3nc(-c4c(O)cccc4F)c(F)cc23)C(C)C1 under 20%?
Not satisfied

Quick check: viability, T/C of COC(=O)c1ccc2c(C(=Nc3ccc(N(C)C(=O)CN4CCN(C)CC4)cc3)c3ccccc3)c(O)[nH]c2c1 + CC1OCC2(CCN(c3cnc(Sc4ccnc(N)c4Cl)c(N)n3)CC2)C1N under 20%?
Not satisfied

Quick check: viability, T/C of Cn1nccc1Nc1nccc(-c2cc3c(s2)C(C)(C)N(CCN2CCOCC2)C3=O)n1 + CC1OCC2(CCN(c3cnc(Sc4ccnc(N)c4Cl)c(N)n3)CC2)C1N under 20%?
Satisfied

Quick check: viability, T/C of CC(C)NCC(C(=O)N1CCN(c2ncnc3c2C(C)CC3O)CC1)c1ccc(Cl)cc1 (stereo not given) + COc1cc2nc(C)nc(NC(C)c3cc(N)cc(C(F)(F)F)c3)c2cc1OC1CCOC1 under 20%?
Satisfied

Quick check: viability, T/C of COc1cc(Nc2ncc3c(n2)-c2ccc(Cl)cc2C(c2c(F)cccc2OC)=NC3)ccc1C(=O)O + CC1OCC2(CCN(c3cnc(Sc4ccnc(N)c4Cl)c(N)n3)CC2)C1N under 20%?
Not satisfied

###

Give viability, T/C for every item shown.
Tested on: 276233-004-R-J1-PDC KRAS spheroids with HUVEC/MSC, viability
Assay: Anticancer human tumor 276233-004-R-J1-PDC cell line growth inhibition [KRAS2];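 also: cells exposed to agents for seven days before viability read; 100% = DMSO vehicle control wells and lower values mean fewer viable cells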
Details: second compound 0.1 µM; first compound 0.0316 µM; stronger effect = lower value
Source text: Multicellular complex tumor spheroid response to RAS pathway inhibitors in combination with a targeted agents in patient-derived cell lines with oncogenic KRAS variants from multiple cancer types A high-throughput screen of multi-cell type tumor spheroids was designed to identify active combinations of targeted small molecules and KRAS pathway inhibitors. […] Compounds. […] If the clinical Cmax for an agent had not been determined, the highest concentration tested was 10 microM. […]
Give bare numbers, in %.

Study these solved cases before continuing.
{"columns": ["molecule", "property-measured", "unit-string", "measured-value"],
 "data": [
  ["CC(=O)Nc1cccc(-n2c(=O)n(C3CC3)c(=O)c3c(Nc4ccc(I)cc4F)n(C)c(=O)c(C)c32)c1 + C=CC(=O)N1CCN(c2nc(OCC3CCCN3C)nc3c2CCN(c2cccc4cccc(C)c24)C3)CC1CC#N", "viability, T/C", "%", 22.6],
  ["CC1COCCN1c1cc(-c2ccnn2C)c2ccnc(-c3ccn[nH]3)c2n1 (stereo not given) + COc1cc2nc(C)nc(NC(C)c3cc(N)cc(C(F)(F)F)c3)c2cc1OC1CCOC1", "viability, T/C", "%", 90.3],
  ["CCN1CCN(Cc2ccc(Nc3ncc(F)c(-c4cc(F)c5nc(C)n(C(C)C)c5c4)n3)nc2)CC1 + CNCc1ccccc1-c1csc(C(C)Nc2nc(C)nc3cc(OC)c(OC)cc23)c1", "viability, T/C", "%", 87.1],
  ["CC1(C)CCC(CN2CCN(c3ccc(C(=O)NS(=O)(=O)c4ccc(NCC5CCOCC5)c([N+](=O)[O-])c4)c(Oc4cnc5[nH]ccc5c4)c3)CC2)=C(c2ccc(Cl)cc2)C1 + COc1cc2nc(C)nc(NC(C)c3cc(N)cc(C(F)(F)F)c3)c2cc1OC1CCOC1", "viability, T/C", "%", 97.5]
]}

Continue with the next molecule.
viability, T/C for COC(=O)c1ccc2c(C(=Nc3ccc(N(C)C(=O)CN4CCN(C)CC4)cc3)c3ccccc3)c(O)[nH]c2c1 + COc1cc2nc(C)nc(NC(C)c3cc(N)cc(C(F)(F)F)c3)c2cc1OC1CCOC1 ?
96.3

###

Give viability, T/C for every item shown.
test system: 276233-004-R-J1-PDC KRAS spheroids with HUVEC/MSC, viability; test: Anticancer human tumor 276233-004-R-J1-PDC cell line growth inhibition [KRAS2]; conditions: second compound 1 µM; first compound 0.00316 µM; stronger effect = lower value;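 also: cells exposed to agents for seven days before viability read; 100% = DMSO vehicle control wells and lower values mean fewer viable cells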

Study these solved cases before continuing.
{"columns": ["molecule", "measured-value"],
 "data": [
  ["CC(C)n1nc(-c2ccc3oc(N)nc3c2)c2c(N)ncnc21 + CNCc1ccccc1-c1csc(C(C)Nc2nc(C)nc3cc(OC)c(OC)cc23)c1", "60.5%"],
  ["Cn1ncnc1[C@H]1c2n[nH]c(=O)c3cc(F)cc(c23)N[C@@H]1c1ccc(F)cc1 + CC1OCC2(CCN(c3cnc(Sc4ccnc(N)c4Cl)c(N)n3)CC2)C1N", "104%"],
  ["CCN1CCN(Cc2ccc(Nc3ncc(F)c(-c4cc(F)c5nc(C)n(C(C)C)c5c4)n3)nc2)CC1 + COc1cc2nc(C)nc(NC(C)c3cc(N)cc(C(F)(F)F)c3)c2cc1OC1CCOC1", "105%"]
]}

Could you tell me viability, T/C for each of these molecules? They are listed below.
1. CCN1CCN(Cc2ccc(Nc3ncc(F)c(-c4cc(F)c5nc(C)n(C(C)C)c5c4)n3)nc2)CC1 + C=CC(=O)N1CCN(c2nc(OCC3CCCN3C)nc3c2CCN(c2cccc4cccc(C)c24)C3)CC1CC#N
2. CCN1CCN(Cc2ccc(Nc3ncc(F)c(-c4cc(F)c5nc(C)n(C(C)C)c5c4)n3)nc2)CC1 + CC1OCC2(CCN(c3cnc(Sc4ccnc(N)c4Cl)c(N)n3)CC2)C1N
3. CC(=O)Nc1cccc(-n2c(=O)n(C3CC3)c(=O)c3c(Nc4ccc(I)cc4F)n(C)c(=O)c(C)c32)c1 + CC1OCC2(CCN(c3cnc(Sc4ccnc(N)c4Cl)c(N)n3)CC2)C1N
4. Cn1ncnc1[C@H]1c2n[nH]c(=O)c3cc(F)cc(c23)N[C@@H]1c1ccc(F)cc1 + COc1cc2nc(C)nc(NC(C)c3cc(N)cc(C(F)(F)F)c3)c2cc1OC1CCOC1
5. Cn1ncnc1[C@H]1c2n[nH]c(=O)c3cc(F)cc(c23)N[C@@H]1c1ccc(F)cc1 + C=CC(=O)N1CCN(c2nc(OCC3CCCN3C)nc3c2CCN(c2cccc4cccc(C)c24)C3)CC1CC#N
6. CC(=O)Nc1cccc(-n2c(=O)n(C3CC3)c(=O)c3c(Nc4ccc(I)cc4F)n(C)c(=O)c(C)c32)c1 + CNCc1ccccc1-c1csc(C(C)Nc2nc(C)nc3cc(OC)c(OC)cc23)c1

1: 81.4%; 2: 83.7%; 3: 28.4%; 4: 82.6%; 5: 105%; 6: 27.6%

Could you tell me viability, T/C for each of these molecules? They are listed below.
1. CCN1CCN(Cc2ccc(Nc3ncc(F)c(-c4cc(F)c5nc(C)n(C(C)C)c5c4)n3)nc2)CC1 + CNCc1ccccc1-c1csc(C(C)Nc2nc(C)nc3cc(OC)c(OC)cc23)c1
2. CN(C)C/C=C/C(=O)Nc1cc2c(Nc3ccc(F)c(Cl)c3)ncnc2cc1O[C@H]1CCOC1 + C=CC(=O)N1CCN(c2nc(OCC3CCCN3C)nc3c2CCN(c2cccc4cccc(C)c24)C3)CC1CC#N
3. CC(=O)Nc1cccc(-n2c(=O)n(C3CC3)c(=O)c3c(Nc4ccc(I)cc4F)n(C)c(=O)c(C)c32)c1 + C=CC(=O)N1CCN(c2nc(OCC3CCCN3C)nc3c2CCN(c2cccc4cccc(C)c24)C3)CC1CC#N
4. CC(=O)Nc1cccc(-n2c(=O)n(C3CC3)c(=O)c3c(Nc4ccc(I)cc4F)n(C)c(=O)c(C)c32)c1 + COc1cc2nc(C)nc(NC(C)c3cc(N)cc(C(F)(F)F)c3)c2cc1OC1CCOC1
5. CN(C)C/C=C/C(=O)Nc1cc2c(Nc3ccc(F)c(Cl)c3)ncnc2cc1O[C@H]1CCOC1 + CC1OCC2(CCN(c3cnc(Sc4ccnc(N)c4Cl)c(N)n3)CC2)C1N
6. CC(C)n1nc(-c2ccc3oc(N)nc3c2)c2c(N)ncnc21 + CC1OCC2(CCN(c3cnc(Sc4ccnc(N)c4Cl)c(N)n3)CC2)C1N

["92.2%", "70.5%", "47%", "44.7%", "104%", "77%"]

###

Test system: 276233-004-R-J1-PDC KRAS spheroids with HUVEC/MSC, viability
Assay: Anticancer human tumor 276233-004-R-J1-PDC cell line growth inhibition [KRAS2];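 also: cells exposed to agents for seven days before viability read; 100% = DMSO vehicle control wells and lower values mean fewer viable cells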
Conditions: second compound 0.1 µM; first compound 0.0316 µM; stronger effect = lower value
Excerpt: Multicellular complex tumor spheroid response to RAS pathway inhibitors in combination with a targeted agents in patient-derived cell lines with oncogenic KRAS variants from multiple cancer types A high-throughput screen of multi-cell type tumor spheroids was designed to identify active combinations of targeted small molecules and KRAS pathway inhibitors. […] Compounds. […] If the clinical Cmax for an agent had not been determined, the highest concentration tested was 10 microM. […]
Consider the cut-off 90%. If the recorded viability, T/C is strictly smaller, the label is Satisfied; if not, the label is Not satisfied.

Worked cases, answers included:
{"columns": ["molecule", "class-label"],
 "data": [
  ["CC(C)NCC(C(=O)N1CCN(c2ncnc3c2C(C)CC3O)CC1)c1ccc(Cl)cc1 (stereo not given) + CC1OCC2(CCN(c3cnc(Sc4ccnc(N)c4Cl)c(N)n3)CC2)C1N", "Satisfied"],
  ["CC(=O)OC12COC1CC(O)C1(C)C(=O)C(O)C3=C(C)C(OC(=O)C(O)C(NC(=O)OC(C)(C)C)c4ccccc4)CC(O)(C(OC(=O)c4ccccc4)C21)C3(C)C (stereo not given) + CC1OCC2(CCN(c3cnc(Sc4ccnc(N)c4Cl)c(N)n3)CC2)C1N", "Satisfied"],
  ["Cn1ncnc1[C@H]1c2n[nH]c(=O)c3cc(F)cc(c23)N[C@@H]1c1ccc(F)cc1 + C=CC(=O)N1CCN(c2nc(=O)n(-c3c(C)ccnc3C(C)C)c3nc(-c4c(O)cccc4F)c(F)cc23)C(C)C1", "Not satisfied"],
  ["CC1(C)CCC(CN2CCN(c3ccc(C(=O)NS(=O)(=O)c4ccc(NCC5CCOCC5)c([N+](=O)[O-])c4)c(Oc4cnc5[nH]ccc5c4)c3)CC2)=C(c2ccc(Cl)cc2)C1 + C=CC(=O)N1CCN(c2nc(=O)n(-c3c(C)ccnc3C(C)C)c3nc(-c4c(O)cccc4F)c(F)cc23)C(C)C1", "Satisfied"],
  ["CC(C)n1nc(-c2ccc3oc(N)nc3c2)c2c(N)ncnc21 + C=CC(=O)N1CCN(c2nc(=O)n(-c3c(C)ccnc3C(C)C)c3nc(-c4c(O)cccc4F)c(F)cc23)C(C)C1", "Satisfied"],
  ["CC(=O)OC12COC1CC(O)C1(C)C(=O)C(O)C3=C(C)C(OC(=O)C(O)C(NC(=O)OC(C)(C)C)c4ccccc4)CC(O)(C(OC(=O)c4ccccc4)C21)C3(C)C (stereo not given) + C=CC(=O)N1CCN(c2nc(OCC3CCCN3C)nc3c2CCN(c2cccc4cccc(C)c24)C3)CC1CC#N", "Not satisfied"]
]}

Quick check: viability, T/C of Cn1ncnc1[C@H]1c2n[nH]c(=O)c3cc(F)cc(c23)N[C@@H]1c1ccc(F)cc1 + C=CC(=O)N1CCN(c2nc(OCC3CCCN3C)nc3c2CCN(c2cccc4cccc(C)c24)C3)CC1CC#N under 90%?
Satisfied
